experimental_system: S. aureus GyrB ATPase (Staphylococcus aureus, UniProt P0A0K8)
Sequence (P0A0K8 whole entry): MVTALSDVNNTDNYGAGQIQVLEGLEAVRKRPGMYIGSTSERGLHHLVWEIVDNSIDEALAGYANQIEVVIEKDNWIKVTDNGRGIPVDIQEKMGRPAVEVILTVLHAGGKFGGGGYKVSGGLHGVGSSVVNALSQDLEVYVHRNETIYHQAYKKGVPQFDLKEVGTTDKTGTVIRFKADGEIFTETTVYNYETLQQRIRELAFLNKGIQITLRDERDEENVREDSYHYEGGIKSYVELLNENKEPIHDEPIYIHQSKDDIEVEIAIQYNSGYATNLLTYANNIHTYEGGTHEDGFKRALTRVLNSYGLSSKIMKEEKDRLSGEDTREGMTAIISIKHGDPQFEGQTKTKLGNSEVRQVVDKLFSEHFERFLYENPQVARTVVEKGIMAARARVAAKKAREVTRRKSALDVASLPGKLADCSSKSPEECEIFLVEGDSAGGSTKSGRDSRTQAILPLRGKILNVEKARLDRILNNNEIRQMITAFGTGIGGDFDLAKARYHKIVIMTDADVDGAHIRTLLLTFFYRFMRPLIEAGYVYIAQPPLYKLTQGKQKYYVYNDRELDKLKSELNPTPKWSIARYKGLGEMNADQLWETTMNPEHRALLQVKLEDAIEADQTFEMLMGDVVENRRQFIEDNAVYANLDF
Sequence (P0AES4 whole entry, further chain): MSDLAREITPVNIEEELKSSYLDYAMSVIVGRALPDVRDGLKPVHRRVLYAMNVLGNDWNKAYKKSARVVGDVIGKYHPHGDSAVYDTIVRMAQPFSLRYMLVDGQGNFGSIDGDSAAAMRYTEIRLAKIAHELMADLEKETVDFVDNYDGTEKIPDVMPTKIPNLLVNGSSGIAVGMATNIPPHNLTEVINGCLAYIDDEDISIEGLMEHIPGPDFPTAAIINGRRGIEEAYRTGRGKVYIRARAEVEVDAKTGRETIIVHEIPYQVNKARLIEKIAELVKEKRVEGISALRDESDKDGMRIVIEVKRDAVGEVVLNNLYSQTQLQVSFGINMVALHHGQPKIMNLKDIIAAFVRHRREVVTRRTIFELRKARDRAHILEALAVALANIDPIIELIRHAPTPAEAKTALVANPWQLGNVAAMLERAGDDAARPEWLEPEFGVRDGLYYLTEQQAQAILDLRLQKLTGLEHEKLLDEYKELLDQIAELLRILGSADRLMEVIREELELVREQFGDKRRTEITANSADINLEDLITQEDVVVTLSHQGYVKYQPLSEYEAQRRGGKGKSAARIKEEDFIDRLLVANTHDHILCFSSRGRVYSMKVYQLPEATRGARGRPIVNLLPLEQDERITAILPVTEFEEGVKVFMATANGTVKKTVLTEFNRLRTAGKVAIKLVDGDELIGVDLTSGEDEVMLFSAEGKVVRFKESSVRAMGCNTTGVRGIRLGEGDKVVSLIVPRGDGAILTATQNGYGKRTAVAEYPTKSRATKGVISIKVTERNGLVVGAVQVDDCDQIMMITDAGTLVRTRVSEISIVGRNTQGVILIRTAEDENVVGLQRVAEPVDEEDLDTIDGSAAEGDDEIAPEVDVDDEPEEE
run_description: S. aureus (SAU) GyrB ATPase inhibition, malachite green phosphate detection (E. coli GyrA + S. aureus GyrB)
Type: biochemical
condition_details: compound concentration of 1.0 μM unless otherwise noted; average value where assay was carried out more than once; read-out: S. aureus (SAU) GyrB ATPase % Inhibition
metric: inhibition at 1 µM (%)
Give the value in % but do not write % after it.

Problem: Name the recorded inhibition at 1 µM of the compound listed here: CCNC(=O)Nc1cc(-c2nc(C(F)(F)F)cs2)c(-c2cncc(C3=NOS(=O)N3)c2)cn1 (stereo not drawn)
Solution: 111

Problem: State its inhibition at 1 µM for this compound: CCNC(=O)Nc1cc(-c2nc(C(F)(F)F)cs2)c(-c2cncc(-c3ncc[nH]3)c2)cn1
Solution: 100

Problem: Please list inhibition at 1 µM recorded for the compound CCNC(=O)Nc1cc(-c2nc(-c3ccncc3)cs2)c(-c2cncc(-c3n[nH]c(=O)o3)c2)cn1
Solution: 102

Problem: Provide only the value of recorded inhibition at 1 µM for CCNC(=O)Nc1cc(-c2nc(C(F)(F)F)cs2)c(-c2nc3c(=O)[nH][nH]c(=O)c3s2)cn1
Solution: 115

Problem: For the compound CCNC(=O)Nc1cc(-c2nnc(-c3ccc(F)cc3)o2)c(-c2cncc(-c3n[nH]c(=O)o3)c2)cn1 , report inhibition at 1 µM.
Solution: 104

Problem: Identify inhibition at 1 µM associated with the compound CCNC(=O)Nc1cc(-c2nc(C(F)(F)F)cs2)c(-c2cncc(C(=N)N)c2)cn1
Solution: 96

Problem: Hello, please tell me recorded inhibition at 1 µM for this one: CCNC(=O)Nc1cc(-c2nc(C(F)(F)F)c(CNC3CCCC3)s2)c(-c2cncc(-c3nnc(C)o3)c2)cn1
Solution: 96

Problem: Please report the measured inhibition at 1 µM for CCCCOc1ncc(-c2cnc(NC(=O)NCC)cc2-c2nc(C(F)(F)F)cs2)cc1-c1n[nH]c(=O)o1
Solution: 117

Problem: Identify inhibition at 1 µM associated with the compound CCNC(=O)Nc1cc(-c2nc(C(F)(F)F)cs2)c(-c2cncc(-c3nnc(CN)o3)c2)cn1
Solution: 94

Problem: Return inhibition at 1 µM (reported value) for this compound: CCNC(=O)Nc1cc(-c2nc(C(F)(F)F)cs2)c(-c2cncc(-c3c[nH]c(=O)[nH]c3=O)c2)cn1
Solution: 93

Problem: Look up and state reported inhibition at 1 µM for CCNC(=O)Nc1cc(-c2nc(C(F)(F)F)cs2)c(-c2cncc(-c3c(C)noc3C)c2)cn1
Solution: 104

Problem: Please look at this compound and report its inhibition at 1 µM: CCNC(=O)Nc1cc(-c2nc(-c3ccccc3)cs2)c(-c2cncc(-c3n[nH]c(=O)o3)c2)cn1
Solution: 107

Problem: # return recorded inhibition at 1 µM for input CCNC(=O)Nc1cc(-c2nc(C(F)(F)F)cs2)c(-c2cncc(-c3n[nH]c(=O)[nH]3)c2)cn1
Solution: 101

Problem: State its inhibition at 1 µM for this compound: CCCNC(=O)Nc1cc(-c2nc(C(F)(F)F)cs2)c(-c2ccnc(-c3nnc(O)o3)c2)cn1
Solution: 93

Problem: Identify measured inhibition at 1 µM corresponding to CCNC(=O)Nc1cc(-c2nc(C(F)(F)F)cs2)c(-c2cncc(/C(N)=N/O)c2)cn1
Solution: 96
